# experimental target: Kdr (Homo sapiens, UniProt P35968)
# Construct: Kinases are expressed as either kinase domains or full length constructs; made in house
# Sequence (P35968 20-1356, species assumed): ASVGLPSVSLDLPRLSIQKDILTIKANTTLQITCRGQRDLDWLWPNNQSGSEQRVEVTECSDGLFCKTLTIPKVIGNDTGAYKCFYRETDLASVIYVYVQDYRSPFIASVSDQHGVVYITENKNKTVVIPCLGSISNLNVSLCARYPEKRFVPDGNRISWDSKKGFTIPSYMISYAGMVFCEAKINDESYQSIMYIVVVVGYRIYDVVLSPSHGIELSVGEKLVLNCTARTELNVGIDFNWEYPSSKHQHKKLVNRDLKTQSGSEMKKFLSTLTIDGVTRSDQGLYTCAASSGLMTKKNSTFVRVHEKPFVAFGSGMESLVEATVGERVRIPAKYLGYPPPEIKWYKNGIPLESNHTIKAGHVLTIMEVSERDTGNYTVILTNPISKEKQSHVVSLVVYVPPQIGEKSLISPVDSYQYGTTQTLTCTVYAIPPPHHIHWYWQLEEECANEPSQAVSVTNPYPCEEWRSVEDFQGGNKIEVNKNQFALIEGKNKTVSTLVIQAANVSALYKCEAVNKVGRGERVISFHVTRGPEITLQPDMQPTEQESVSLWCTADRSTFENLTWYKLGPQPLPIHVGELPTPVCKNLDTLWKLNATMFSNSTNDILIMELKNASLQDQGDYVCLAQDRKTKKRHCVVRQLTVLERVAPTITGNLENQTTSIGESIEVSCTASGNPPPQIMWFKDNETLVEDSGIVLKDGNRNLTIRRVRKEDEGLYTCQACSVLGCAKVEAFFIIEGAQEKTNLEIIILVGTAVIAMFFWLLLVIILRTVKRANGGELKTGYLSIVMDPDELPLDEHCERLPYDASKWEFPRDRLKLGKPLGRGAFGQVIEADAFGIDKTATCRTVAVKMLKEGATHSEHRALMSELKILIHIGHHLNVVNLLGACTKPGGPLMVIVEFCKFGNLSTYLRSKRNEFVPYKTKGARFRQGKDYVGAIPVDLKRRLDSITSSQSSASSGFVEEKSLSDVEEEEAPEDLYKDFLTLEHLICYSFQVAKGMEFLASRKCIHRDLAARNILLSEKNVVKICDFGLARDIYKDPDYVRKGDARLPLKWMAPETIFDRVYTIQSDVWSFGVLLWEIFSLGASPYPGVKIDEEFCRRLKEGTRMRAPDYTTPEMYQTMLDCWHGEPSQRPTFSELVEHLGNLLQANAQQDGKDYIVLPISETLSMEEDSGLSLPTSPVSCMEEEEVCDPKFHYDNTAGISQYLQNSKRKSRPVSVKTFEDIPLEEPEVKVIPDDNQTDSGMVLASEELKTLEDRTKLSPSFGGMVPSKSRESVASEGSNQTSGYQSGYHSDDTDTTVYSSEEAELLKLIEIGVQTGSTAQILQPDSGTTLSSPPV
# method summary: Kinase inhibition assay (33P transfer), Kdr
# Assay type: biochemical
# measurement conditions: Table 3; read-out: KDR-1
pIC50: −log10 of the molar value.
value type: pIC50

q: Quick check: pIC50 of COc1cccc(-c2ncnc(Nc3cc(OC)c(OC)c(OC)c3)n2)c1 [Compound 232] ?
a: 5.19 to 5.96

q: Next up: COc1cc(Nc2ncnc(-n3c(NCc4ccncc4)nc4ccccc43)n2)cc(OC)c1OC [Compound 413]
a: > 6.08

q: Next up: COc1cc(Nc2ncnc(-c3ccnc(N4CCCCC4)c3)n2)cc(OC)c1OC [Compound 345]
a: > 6.02

q: Next up: COc1ccccc1Nc1ncnc(-c2ccccc2)n1 [Compound 12]
a: 4.79 to 4.90

q: Next up: COc1cc(Nc2ncnc(Nc3cc(C)c(O)cc3C)n2)cc(OC)c1OC [Compound 94]
a: > 6.00

q: Next up: COc1ccc(Nc2ncnc(N(CC(=O)OC(C)(C)C)c3ccc4c(c3)OCO4)n2)cc1OC [Compound 310]
a: 5.03 to 5.14

q: Next up: COc1cc(Nc2ncnc(Nc3cc(-c4ccccc4)nn3C)n2)cc(OC)c1OC [Compound 394]
a: > 6.03

q: Next up: COc1cc(Nc2ncnc(N3CCCc4ccccc43)n2)cc(OC)c1OC [Compound 609]
a: > 5.99

q: Next up: CC(C)(C)OC(=O)Nc1ccc(Nc2ncnc(-c3ccccc3)n2)cc1 [Compound 19]
a: 5.02 to 5.18
